target: Voltage-gated inwardly rectifying potassium channel KCNH2 (Homo sapiens); test: qHTS Assay for Small Molecule Inhibitors of the Human hERG Channel Activity (AID 588834); settings: U2OS BacMam hERG, FluxOR thallium flux fluorescence; series mostly up to 46.1 µM;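 also: lower thallium flux fluorescence means stronger hERG block; nearly all actives have a fitted effect of over 50% in size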
Results filed as inconclusive are left out. Calls of active or inactive are those of the source. Calls follow the shape of the dose curve; as a rule, active = well fitted inhibition curve with a large enough effect; inconclusive = small, poorly fitted or top-dose-only effect; inactive = flat fitted curve, though single readings scatter.
# valid calls are class 1 (active), class 0 (inactive); nothing else

Please review the following examples before continuing.
COMPOUND	CATEGORY LABEL
O=C(O)CCC(=O)C(=O)O	class 0
CC1=C(/C=C/C(C)=C/C=C/C(C)=C/C=C/C=C(C)/C=C/C=C(C)/C=C/C2=C(C)C(=O)CCC2(C)C)C(C)(C)CCC1=O	class 0
CC(C)N=c1cc2n(-c3ccc(Cl)cc3)c3ccccc3nc-2cc1Nc1ccc(Cl)cc1	class 1
CC[C@@H](C(=O)O)[C@@H]1O[C@@H]([C@@H](C)[C@H](O)[C@H](C)C(=O)[C@H](CC)[C@H]2O[C@]3(C=C[C@@H](O)[C@]4(CC[C@@](C)([C@H]5CC[C@](O)(CC)[C@H](C)O5)O4)O3)[C@H](C)C[C@@H]2C)[C@@H](C)C[C@@H]1C	class 0
CO[C@H]1C[C@@H]2CC[C@@H](C)[C@@](O)(O2)C(=O)C(=O)N2CCCC[C@H]2C(=O)O[C@H]([C@H](C)C[C@@H]2CC[C@@H](OCCO)[C@H](OC)C2)CC(=O)[C@H](C)/C=C(\C)[C@@H](O)[C@@H](OC)C(=O)[C@H](C)C[C@H](C)/C=C/C=C/C=C/1C	class 0

Identify the outcome logged in this assay for the compound shown: Nc1c(Br)cc(Br)cc1CNC1CCC(O)CC1 (stereo unspecified)
class 0
